For each record, write down the corresponding normalized growth.
method_description: chemical genetic growth profiling, strain panel (AID 1159580);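 note: tested at 20 µM; growth read once vehicle control cultures reached saturation at 30 °C; 1 = growth at the plate median or of vehicle wells; lower values mean less growth of the strain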
experimental_setup: S. cerevisiae deletion strains, growth OD, locus YMR277W, strain FCP1, hits give low values
Hit rate of the full screen: of about 5,500 compounds, about 2,000 (36%) were called active. Inconclusive results (about 18%) are left out. The list shows a part of the results.

Hi! Can you tell me normalized growth for each of these compounds?
1. Clc1ccc(-c2noc(CSC3=NCCN3)n2)cc1
2. CCCC1c2ccsc2CCN1C(=S)Nc1ccc(Cl)cc1Cl (stereo not given)
3. Nc1cc(-c2ccc(OC(F)(F)F)cc2)nn1-c1ccc(Cl)c(Cl)c1
4. O=C1/C(=C/c2c(F)cccc2Cl)Cc2ccccc21

["0.975 (inactive)", "0.977 (inactive)", "0.993 (inactive)", "0.963 (inactive)"]

====

method_description: chemical genetic growth profiling, strain panel (AID 1159580)
experimental_setup: S. cerevisiae deletion strains, growth OD, locus YDL028C, strain MPS1, hits give low values
The campaign covered roughly 5,500 compounds. About 2,000 (36%) were called active. Another 18% or so got no clear call; they are omitted. The list shows a part of the results.
value_type: normalized growth

Guide cases for normalized growth, answers given:
1. CC1(C)C/C(=N/Nc2ccc(C(F)(F)F)cc2)c2cc(C(C)(C)C)c(O)c(O)c2O1 | 0.96 (inactive)
2. COc1cc(C(=O)Oc2c(Cl)cc(Cl)cc2C=Nc2cccc(C(F)(F)F)c2)cc(OC)c1OC | 0.962 (inactive)
3. CN(C)/C=C/C(=O)c1ccc(C#Cc2ccccc2)cc1 | 0.98 (inactive)
4. Cc1cc(C(=O)O/N=C(/N)c2ccc(C(C)(C)C)cc2)no1 | 0.971 (inactive)
5. Nc1cc(-c2ccc(OC(F)(F)F)cc2)nn1-c1ccc(Cl)c(Cl)c1 | 1.01 (inactive)
6. Cc1nc(C(F)(F)F)c(C(=O)O/N=C(/N)c2ccc(Cl)cc2)s1 | 0.974 (inactive)
7. COc1ccccc1NC(=O)Nc1nn(C)c2cccc(OC)c12 | 0.938 (inactive)
8. O=C(Nc1cccc(C(F)(F)F)c1)Oc1ccc(F)cc1Cl | 0.977 (inactive)
9. CCOC(=O)CCc1cc(N=Cc2cc(Br)ccc2O)c(O)c(N=Cc2cc(Br)ccc2O)c1 | 0.968 (inactive)
10. CCOC(=O)NC(=S)NC12CC3CC(CC(C3)C1)C2 | 0.978 (inactive)

Hi! Can you tell me normalized growth for each of these molecules?
1. CSc1c(C#N)c(-c2ccc(Cl)cc2)nn1C(=O)c1ccccc1Cl
2. O=S(=O)(Nc1cc(C(F)(F)F)ccc1F)c1cc(C(F)(F)F)ccc1Cl
3. O=C(NCc1ccco1)c1csc(C2COc3ccccc3O2)n1 (configuration not stated)
4. COc1cc(N=Cc2cc(Cl)cc(Cl)c2OC(=O)c2cc(OC)c(OC)c(OC)c2)c(OC)cc1Cl

["0.951 (inactive)", "0.941 (inactive)", "0.919 (inactive)", "0.959 (inactive)"]

====

method_description: chemical genetic growth profiling, strain panel (AID 1159580)
experimental_setup: S. cerevisiae deletion strains, growth OD, locus YER123W, strain YCK3
About 2,000 (36%) of roughly 5,500 compounds were called active. Roughly 18% stayed inconclusive and do not appear here. Cut-off read from the data, not from the text of the source: active = normalized growth mostly below about 0.91 (no sharp cut-off); inconclusive = no clear call, values can overlap the other calls; inactive = mostly above about 0.92. The list shows a part of the results.
The reply should be one of these categories: true (active), false (inactive)

These recorded examples may help you get a feel for the data.
1. O=C(Nc1ccccn1)c1cc(-c2ccccc2)c(C(F)(F)F)s1 | false
2. COc1cc(C(=O)Oc2c(Cl)cc(Cl)cc2C=Nc2cccc(C(F)(F)F)c2)cc(OC)c1OC | true
3. Cc1cc(C(=O)O/N=C(/N)c2ccc([N+](=O)[O-])o2)no1 | false
4. Cc1nc(C(F)(F)F)c(C(=O)O/N=C(/N)c2ccc(Cl)cc2)s1 | false
5. O=C(Nc1ccc(Cl)cc1Cl)c1cnccc1C(F)(F)F | false
6. CCCCCc1ccc(S(=O)(=O)Nc2ccc3c(c2)C(=O)OC3)cc1 | false
7. Cc1cc(C(=O)O/N=C(/N)c2ccc(C(C)(C)C)cc2)no1 | false
8. O=C(CCSc1cccs1)Nc1cccc(C(F)(F)F)c1 | false

Hi, sorry to bother you, what did the test record for "O=C(CO/N=C\c1ccc(Cl)cc1Cl)NNC(=S)Nc1cc(Cl)ccc1Cl" ?
false

Param item: "COc1cc(N=Cc2cc(Cl)cc(Cl)c2OS(=O)(=O)c2ccc(C)cc2)c(OC)cc1Cl"
false

====

method_description: chemical genetic growth profiling, strain panel (AID 1159580)
experimental_setup: S. cerevisiae deletion strains, growth OD, locus YMR129W, hits give low values
Hit rate of the full screen: of about 5,500 compounds, about 2,000 (36%) were called active. Inconclusive results (about 18%) are left out. Some of the results follow.
For each record, write down the corresponding normalized growth.
One number for each entry.

1. CC1(C)O[C@@H]2CC3C4CCC5=CC(=O)C=C[C@]5(C)C4[C@@H](O)C[C@]3(C)[C@]2(C(=O)CO)O1 (stereo partly specified) | 1.01
2. Nc1c(Br)cc(Br)cc1CNC1CCC(O)CC1 (stereo unspecified) | 1.02

Hi! Can you tell me normalized growth for each of these compounds?
1. O=C(O)c1cc(O)c(O)c(O)c1
2. CC(=O)O[C@H]1CC[C@@]2(C)C(=CCC3C2CC[C@@]2(C)C3CC[C@@H]2C(C)CCCC(C)C)C1 (stereo partly specified)
3. O=C(O)c1cc(=O)c(O)c2c(O)c(O)c(O)cc2c1

1.03
0.997
0.815

Hi! Can you tell me normalized growth for each of these compounds?
1. O=C(O)c1cc(=O)c(O)c2c(O)c(O)ccc2c1
2. CCOC(=O)c1ccc(N)cc1
3. OC1CCCCC1N1CCC(c2ccccc2)CC1 (stereo unspecified)

1.01
1.01
0.985

Hi! Can you tell me normalized growth for each of these compounds?
1. CN(Cc1cc(Br)cc(Br)c1N)C1CCCCC1
2. COc1ccccc1OCC(O)CN1CCN(CC(=O)Nc2c(C)cccc2C)CC1 (stereo unspecified)

[1.04, 0.988]

Sample "CCOP(=S)(OCC)Oc1ccc2c(C)c(Cl)c(=O)oc2c1" — what was its normalized growth?
0.97

====

method_description: chemical genetic growth profiling, strain panel (AID 1159580);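 note: tested at 20 µM; growth read once vehicle control cultures reached saturation at 30 °C; 1 = growth at the plate median or of vehicle wells; lower values mean less growth of the strain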
experimental_setup: S. cerevisiae deletion strains, growth OD, locus YMR205C, strain PFK2 (second series), hits give low values
The whole screen tested about 5,500 compounds, of which about 2,000 (36%) were called active. Another 18% or so got no clear call; they are omitted. Some of the results follow.
value_type: normalized growth
Give bare numbers.

1. CCOC(=O)NC(=S)NC12CC3CC(CC(C3)C1)C2 | 0.917
2. CCCC1c2ccsc2CCN1C(=S)Nc1ccc(Cl)cc1Cl (stereo unspecified) | 0.968

Hi! Can you tell me normalized growth for each of these compounds?
1. O=C(Nc1ccc(Cl)cc1Cl)c1cnccc1C(F)(F)F
2. CC(=O)C(Sc1nc2ccccc2s1)C(C)=O
3. CC(C)(O)C#Cc1ccc(/C=N\Nc2c(Cl)cc(Cl)cc2Cl)cc1
4. CC(C)(O)C#Cc1ccc(/C=N\Nc2ccccc2)cc1
5. Cc1onc(-c2ccccc2Cl)c1-c1nc2ccccc2c(=O)o1

[0.993, 0.749, 0.925, 0.872, 0.955]

Hi! Can you tell me normalized growth for each of these compounds?
1. CSc1cccc(N2C(=O)CC(c3c(Cl)cccc3Cl)CC2=O)c1
2. CCc1cc2c(cc1-c1csc(C/C(N)=N\O)n1)C(C)(C)CCC2(C)C
3. COCCOc1ccccc1NC(=S)SCCSC(=S)Nc1ccccc1OCCOC
4. CCOC(=O)CCc1cc(N=Cc2cc(Br)ccc2O)c(O)c(N=Cc2cc(Br)ccc2O)c1

[0.997, 0.78, 0.939, 0.841]

====

For each record, write down the corresponding normalized growth.
method_description: chemical genetic growth profiling, strain panel (AID 1159580);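 note: tested at 20 µM; growth read once vehicle control cultures reached saturation at 30 °C; 1 = growth at the plate median or of vehicle wells; lower values mean less growth of the strain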
experimental_setup: S. cerevisiae deletion strains, growth OD, locus YNL222W, strain SSU72, hits give low values
The whole screen tested about 5,500 compounds, of which about 2,000 (36%) were called active. About 18% were inconclusive and are not listed. Some of the results follow.
Numbers only.

Guide cases for normalized growth, answers given:
1) N=C(N)SCc1nc(-c2ccc(Cl)cc2)no1 | 0.984
2) NC(=NC(=O)c1ccc(Cl)cc1)c1cccs1 | 0.957
3) CC(C)(O)C#Cc1ccc(/C=N\Nc2ccccc2)cc1 | 0.953
4) Clc1ccc(-c2noc(CSC3=NCCN3)n2)cc1 | 0.981

Let us examine a further case.
Sample "Nc1cc(-c2ccc(OC(F)(F)F)cc2)nn1-c1ccc(Cl)c(Cl)c1" — what was its normalized growth?
0.99

====

method_description: chemical genetic growth profiling, strain panel (AID 1159580);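 note: tested at 20 µM; growth read once vehicle control cultures reached saturation at 30 °C; 1 = growth at the plate median or of vehicle wells; lower values mean less growth of the strain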
experimental_setup: S. cerevisiae deletion strains, growth OD, locus YNR049C, strain mso1, hits give low values
Screen size: about 5,500 compounds; about 2,000 (36%) were called active. Inconclusive results (about 18%) are left out. Some of the results follow.
For each record, write down the corresponding normalized growth.
Answers are plain numbers.

Guide cases for normalized growth, answers given:
1) COc1ccc(C[C@H](N)C(=O)N[C@@H]2[C@@H](CO)OC(n3cnc4c(N(C)C)ncnc43)[C@@H]2O)cc1 (stereo partly drawn) | 0.987
2) O=C(O)c1cc(O)c(O)c(O)c1 | 1.01
3) Nc1ccc(S(=O)(=O)Nc2nccs2)cc1 | 1.01
4) C[C@](N)(Cc1ccc(O)cc1)C(=O)O | 0.989
5) O=C(O)c1cc(=O)c(O)c2c(O)c(O)c(O)cc2c1 | 0.79
6) C=CCc1cc(OC)c2c(c1OC)OCO2 | 0.942
7) OC1CCCCC1N1CCC(c2ccccc2)CC1 (stereo not drawn) | 0.989
8) CCCc1cc(OC)c2c(c1)OCO2 | 0.992

Hi! Can you tell me normalized growth for each of these molecules?
1. Nc1c(Br)cc(Br)cc1CNC1CCC(O)CC1 (stereo not drawn)
2. CCn1cc(C(=O)O)c(=O)c2ccc(C)nc21
3. CCN(CC)CCOC(=O)C(Cc1cccc2ccccc12)CC1CCCO1 (stereo not drawn)

1: 0.987; 2: 0.937; 3: 0.997

Hi! Can you tell me normalized growth for each of these molecules?
1. O=C1O[C@@H](CO)[C@H](O)[C@@H](O)[C@@H]1O
2. CCn1cc(C(=O)O)c(=O)c2cnc(N3CCCC3)nc21
3. C#C[C@]1(O)CCC2C3CCc4cc(OC)ccc4C3CC[C@@]21C (stereo partly drawn)

1. 1.02
2. 0.984
3. 0.983

Hi! Can you tell me normalized growth for each of these molecules?
1. CC1(C)C2CC(=O)O[C@@]3(C)C4=CC(=O)O[C@@H](c5ccoc5)[C@]4(C)CCC3[C@@]2(C)C=C[C@H]1O (stereo partly drawn)
2. c1cc2c(cc1[C@H]1OC[C@H]3[C@@H]1CO[C@H]3c1ccc3c(c1)OCO3)OCO2
3. COc1cc2c(cc1O)CC1c3c(cc(O)c(OC)c3-2)CCN1C (stereo not drawn)

0.981
0.917
1.01
